- experimentalDetails: NCI Yeast Anticancer Drug Screen. Data for the mlh1 rad18 strain (AID 175)
- conditionNotes: S. cerevisiae mlh1 rad18 strain growth inhibition; at 50.0 µM; active compounds read high
- Experimental: Growth inhibition of yeast strains with defined genetic alterations is measured as a screen for potential anti-cancer activity. Selected strains with alterations in DNA damage repair or cell cycle control were exposed to compounds and growth inhibition was measured relative to vehicle treated controls. The strain used in this assay is mlh1 rad18
Compounds without any hit were thinned out: in the full panel of roughly 79,000, 15% have a hit.
Quick rule: growth inhibition of at least -10% means criterion met, below that means criterion not met.

Below are worked cases with known answers.
OCC1C2C=CC(O2)[C@H]1CO (stereo partly drawn)    criterion met
CC(=O)Nc1ccc(S(=O)(=O)/C(=C/c2ccc(-c3ccc(Br)cc3)o2)c2ccc([N+](=O)[O-])o2)cc1    criterion met
CC(=O)C1C(=O)C(=O)N(Cc2ccccc2)C1=O (stereo not drawn)    criterion not met

Input: Has COC(=O)c1cc(C(=O)OC)c(CC(=O)C(=O)Nc2ccc(Cl)c(C(F)(F)F)c2)nc1CC(=O)C(=O)Nc1ccc(Cl)c(C(F)(F)F)c1 a recorded growth inhibition greater than or equal to -10%?
Output: criterion not met

Input: Has COc1ccc(CCC(=O)O)c(C(CC(=O)O)C(=O)O)c1OS(=O)(=O)c1ccc(C)cc1 (stereo not drawn) a recorded growth inhibition greater than or equal to -10%?
Output: criterion not met

Input: Has O=C1CSC(=S)N1c1cccc(F)c1 a recorded growth inhibition greater than or equal to -10%?
Output: criterion met

Input: Has Cc1ccc(O)c2occ(C)c12 a recorded growth inhibition greater than or equal to -10%?
Output: criterion met

Input: Has CN(C)CCCNC(=S)S a recorded growth inhibition greater than or equal to -10%?
Output: criterion met

Input: Has CC(=O)Nc1cc(C)cc(Br)c1 a recorded growth inhibition greater than or equal to -10%?
Output: criterion met

Input: Has O=c1cc[nH]c2c(Cl)cccc12 a recorded growth inhibition greater than or equal to -10%?
Output: criterion met

Input: Has CC(=O)NC(C(=O)NC(CSCc1ccccc1)C(=O)O)=C(C)C (stereo not drawn) a recorded growth inhibition greater than or equal to -10%?
Output: criterion not met

Input: Has C[N+](C)(C)c1ccc2c(c1)CCC/C2=N\N a recorded growth inhibition greater than or equal to -10%?
Output: criterion met

Input: Has CCCCCCCCCCCCCCCC1CCCC2CCCCC12 (stereo not drawn) a recorded growth inhibition greater than or equal to -10%?
Output: criterion not met

Input: Has O=C(Nc1nc2ccc([N+](=O)[O-])cc2s1)C(=O)C(C(=O)c1ccccc1F)C1OC(=O)c2ccccc21 (stereo not drawn) a recorded growth inhibition greater than or equal to -10%?
Output: criterion met

Input: Has COC(CCl)OC a recorded growth inhibition greater than or equal to -10%?
Output: criterion met

Input: Has COc1cccc(C2c3cc4c(cc3OC(N3CCCC3)C2C)OCO4)c1O (stereo not drawn) a recorded growth inhibition greater than or equal to -10%?
Output: criterion not met
